MEASUREMENT DESCRIPTION: Elimination rate constant in guinea pig at 20 mg/kg, iv by HPLC method
Assay type: ADME, organism-based, Cavia porcellus
Set-up: dose 20 mg/kg, route intravenous
TEST SETTINGS: in vivo
OBSERVED PROPERTY: k el (s⁻¹)
Give the quantity in s⁻¹, number only.

Q) For O=[N+]([O-])c1cn2c(n1)OC[C@@H](OCc1ccc(OC(F)(F)F)cc1)C2 , what is its reported k el?
A) 0.000103

###

MEASUREMENT DESCRIPTION: Half life in guinea pig at 60 mg/kg, administered via intratracheal insufflation by HPLC method
Type: ADME, organism-based, Cavia porcellus
Design: dose 60 mg/kg, route endotracheal
TEST SETTINGS: in vivo, inhaled or intranasal
OBSERVED PROPERTY: half-life (h)
// return numeric value only (unit: h, not printed)

Q) Fill blank: measured half-life of the compound O=[N+]([O-])c1cn2c(n1)OC[C@@H](OCc1ccc(OC(F)(F)F)cc1)C2 is ____.
A) 5.91
